Each item that follows carries a reported pIC50.
TESTED TARGET: α-glucosidase (Saccharomyces cerevisiae)
Construct: purchased Sigma-Aldrich
Sequence (P53341 whole entry): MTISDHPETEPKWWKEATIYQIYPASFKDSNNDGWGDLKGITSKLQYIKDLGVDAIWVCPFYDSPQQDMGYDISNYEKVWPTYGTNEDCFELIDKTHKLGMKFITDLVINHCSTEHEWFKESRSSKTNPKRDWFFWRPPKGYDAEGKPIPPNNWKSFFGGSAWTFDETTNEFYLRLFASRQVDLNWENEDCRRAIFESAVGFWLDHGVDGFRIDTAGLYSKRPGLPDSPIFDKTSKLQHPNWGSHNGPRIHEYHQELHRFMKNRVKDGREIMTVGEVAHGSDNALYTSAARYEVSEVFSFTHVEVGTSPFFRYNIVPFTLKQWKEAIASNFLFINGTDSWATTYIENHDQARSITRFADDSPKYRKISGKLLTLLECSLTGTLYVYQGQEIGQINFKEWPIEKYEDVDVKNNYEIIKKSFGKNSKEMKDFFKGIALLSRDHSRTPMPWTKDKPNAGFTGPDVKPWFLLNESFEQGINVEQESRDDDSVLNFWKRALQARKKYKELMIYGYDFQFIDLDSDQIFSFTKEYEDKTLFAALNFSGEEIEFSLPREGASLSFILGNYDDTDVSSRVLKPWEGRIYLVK
EXPERIMENTAL PROTOCOL: α-Glucosidase inhibitory activity (p-NPG substrate)
Format: biochemical
Please treat pIC50 as minus the base-10 logarithm of the molar concentration.

Sample Cc1cc(O)c2c(c1)C(=O)c1cc(O)cc(O)c1C2=O ; pIC50 observed: 4.23

Now for another entry.
Sample Cc1cc(O)c2c(c1)C(=O)c1cccc(O)c1C2=O ; pIC50 observed: 3.22

====

EXPERIMENTAL PROTOCOL: ABTS radical scavenging activity
SETTINGS: isolated compounds (Table 5); read-out: SC50 ABTS
PARAMETER MEASURED: pEC50
Please treat pEC50 as minus the base-10 logarithm of the molar concentration.

A selection of reference data follows.
Sample O=c1c(O)c(-c2ccc(O)cc2)oc2cc(O)cc(O)c12 ; pEC50 observed: 4.81

Sample Cc1cc(C(C)(C)C)c(O)c(C(C)(C)C)c1 [BHT, butylated hydroxytoluene, reference compound] ; pEC50 observed: 4.43

Continuing:
Sample O=c1c(O)c(-c2ccc(O)c(O)c2)oc2cc(O)cc(O)c12 ; pEC50 observed: 5.24

====

EXPERIMENTAL PROTOCOL: ABTS radical scavenging activity
SETTINGS: isolated compounds (Table 5); read-out: SC50 ABTS
PARAMETER MEASURED: EC50

Sample COc1cc(O)c2c(c1)C(=O)c1cc(C)cc(O)c1C2=O ; EC50 observed: > 200 µM

Sample Cc1cc(O)c2c(c1)C(=O)c1cccc(O)c1C2=O ; EC50 observed: > 200 µM

Continuing:
Sample Cc1cc(O)c2c(c1)C(=O)c1cc(O)cc(O)c1C2=O ; EC50 observed: > 200 µM
